Biological target: Insulin receptor (Homo sapiens);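 also: each figure is a mean inhibition value from the GSK PKIS screening panel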
Settings: at 1 µM
READOUT_KIND: inhibition (%)
# value in %; strip the unit string

>  <INPUT_SMILES>
NC(=O)c1sc(-n2cnc3ccccc32)cc1OCc1ccccc1Br

>  <MEASURE_UNIT>
%

>  <inhibition>
5.25

$$$$

Field inhibition (entry COc1cccc(-n2ncc3c(N/N=C/c4ccc(S(C)(=O)=O)cc4)ncnc32)c1 ) reads 1.06

# inhibition of CCS(=O)(=O)c1ccc(OC)c(Nc2ncc(-c3cccc(OC)c3)o2)c1 = 5.78

Given item CN(C)c1cc2c(Nc3ccc4c(cnn4Cc4ccccc4)c3)ncnc2cn1 , the value recorded as its inhibition is 6.13

----------
Overview of recorded inhibition for various compounds
Target: Phosphatidylinositol 4,5-bisphosphate 3-kinase catalytic subunit alpha isoform (Homo sapiens) (UniProt P42336);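 also: values are mean inhibition figures from the GSK PKIS kinase panel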
Sequence (P42336 whole entry, canonical isoform): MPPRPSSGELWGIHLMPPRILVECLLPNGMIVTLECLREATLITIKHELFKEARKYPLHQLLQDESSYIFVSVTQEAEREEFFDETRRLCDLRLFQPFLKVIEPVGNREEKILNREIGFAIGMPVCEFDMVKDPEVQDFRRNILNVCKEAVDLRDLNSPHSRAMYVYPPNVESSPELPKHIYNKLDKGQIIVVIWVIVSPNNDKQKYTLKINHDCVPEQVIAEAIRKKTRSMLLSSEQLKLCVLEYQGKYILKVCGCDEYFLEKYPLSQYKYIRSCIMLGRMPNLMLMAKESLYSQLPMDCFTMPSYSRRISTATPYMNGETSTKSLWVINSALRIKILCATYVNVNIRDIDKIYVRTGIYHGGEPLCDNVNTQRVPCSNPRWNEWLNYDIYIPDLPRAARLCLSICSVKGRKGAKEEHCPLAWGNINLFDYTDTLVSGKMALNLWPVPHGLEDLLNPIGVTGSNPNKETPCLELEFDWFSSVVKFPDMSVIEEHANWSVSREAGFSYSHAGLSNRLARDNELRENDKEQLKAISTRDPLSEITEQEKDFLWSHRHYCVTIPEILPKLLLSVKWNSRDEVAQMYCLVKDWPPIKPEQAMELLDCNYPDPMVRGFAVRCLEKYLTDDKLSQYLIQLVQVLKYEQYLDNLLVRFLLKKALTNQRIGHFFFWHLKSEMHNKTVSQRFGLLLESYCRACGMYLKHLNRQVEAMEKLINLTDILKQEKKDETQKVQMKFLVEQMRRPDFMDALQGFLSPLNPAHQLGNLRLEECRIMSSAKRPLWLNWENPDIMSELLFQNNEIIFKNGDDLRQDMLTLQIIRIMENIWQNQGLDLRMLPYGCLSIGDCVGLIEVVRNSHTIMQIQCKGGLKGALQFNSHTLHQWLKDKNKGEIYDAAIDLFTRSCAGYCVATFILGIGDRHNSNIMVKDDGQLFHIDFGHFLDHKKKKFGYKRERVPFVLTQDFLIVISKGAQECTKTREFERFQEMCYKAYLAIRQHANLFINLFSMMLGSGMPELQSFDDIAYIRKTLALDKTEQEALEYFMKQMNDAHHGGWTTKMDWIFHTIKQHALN
Conditions: at 0.1 µM
Just the number please, in %, no unit attached.

>  <INPUT_SMILES>
COc1cc2ncnc(Nc3ccc(C)c(O)c3)c2cc1OC

>  <READOUT_KIND>
inhibition

>  <REPORTED_RESULT>
4.07

$$$$
>  <INPUT_SMILES>
Cc1cc(Cl)cc2c1NC(=O)C2=NNc1ccc(S(N)(=O)=O)cc1

>  <READOUT_KIND>
inhibition

>  <REPORTED_RESULT>
0.48

$$$$
>  <INPUT_SMILES>
NS(=O)(=O)c1ccc(N/N=C2\C(=O)Nc3ccc(Cl)cc32)cc1

>  <READOUT_KIND>
inhibition

>  <REPORTED_RESULT>
2.11

$$$$

The recorded inhibition for O=C1Nc2ccc(-c3cccnc3)cc2C1=Cc1cc(Br)c(O)c(Br)c1 is 11.3

The reported inhibition of the compound c1ccc(Nc2ncc(-c3ccccc3)o2)cc1 was 5.87

// inhibition value for COc1cccc(-n2ncc3c(N/N=C/c4ccc(S(C)(=O)=O)cc4)ncnc32)c1 : 1.3

Per the records, this compound ( CN(c1ccc(NC(=O)Nc2ccc(OC(F)(F)F)cc2)cc1)c1ccnc(Nc2cccc(S(N)(=O)=O)c2)n1 ) has inhibition equal to 2.98

Lookup result for CCS(=O)(=O)c1ccc(OC)c(Nc2ncc(-c3cccc(OC)c3)o2)c1 ; measured inhibition: 1.81

----------
Biological target: Mitogen-activated protein kinase kinase kinase kinase 4 (Homo sapiens) (UniProt O95819)
Sequence (O95819 2-1239 limits assumed): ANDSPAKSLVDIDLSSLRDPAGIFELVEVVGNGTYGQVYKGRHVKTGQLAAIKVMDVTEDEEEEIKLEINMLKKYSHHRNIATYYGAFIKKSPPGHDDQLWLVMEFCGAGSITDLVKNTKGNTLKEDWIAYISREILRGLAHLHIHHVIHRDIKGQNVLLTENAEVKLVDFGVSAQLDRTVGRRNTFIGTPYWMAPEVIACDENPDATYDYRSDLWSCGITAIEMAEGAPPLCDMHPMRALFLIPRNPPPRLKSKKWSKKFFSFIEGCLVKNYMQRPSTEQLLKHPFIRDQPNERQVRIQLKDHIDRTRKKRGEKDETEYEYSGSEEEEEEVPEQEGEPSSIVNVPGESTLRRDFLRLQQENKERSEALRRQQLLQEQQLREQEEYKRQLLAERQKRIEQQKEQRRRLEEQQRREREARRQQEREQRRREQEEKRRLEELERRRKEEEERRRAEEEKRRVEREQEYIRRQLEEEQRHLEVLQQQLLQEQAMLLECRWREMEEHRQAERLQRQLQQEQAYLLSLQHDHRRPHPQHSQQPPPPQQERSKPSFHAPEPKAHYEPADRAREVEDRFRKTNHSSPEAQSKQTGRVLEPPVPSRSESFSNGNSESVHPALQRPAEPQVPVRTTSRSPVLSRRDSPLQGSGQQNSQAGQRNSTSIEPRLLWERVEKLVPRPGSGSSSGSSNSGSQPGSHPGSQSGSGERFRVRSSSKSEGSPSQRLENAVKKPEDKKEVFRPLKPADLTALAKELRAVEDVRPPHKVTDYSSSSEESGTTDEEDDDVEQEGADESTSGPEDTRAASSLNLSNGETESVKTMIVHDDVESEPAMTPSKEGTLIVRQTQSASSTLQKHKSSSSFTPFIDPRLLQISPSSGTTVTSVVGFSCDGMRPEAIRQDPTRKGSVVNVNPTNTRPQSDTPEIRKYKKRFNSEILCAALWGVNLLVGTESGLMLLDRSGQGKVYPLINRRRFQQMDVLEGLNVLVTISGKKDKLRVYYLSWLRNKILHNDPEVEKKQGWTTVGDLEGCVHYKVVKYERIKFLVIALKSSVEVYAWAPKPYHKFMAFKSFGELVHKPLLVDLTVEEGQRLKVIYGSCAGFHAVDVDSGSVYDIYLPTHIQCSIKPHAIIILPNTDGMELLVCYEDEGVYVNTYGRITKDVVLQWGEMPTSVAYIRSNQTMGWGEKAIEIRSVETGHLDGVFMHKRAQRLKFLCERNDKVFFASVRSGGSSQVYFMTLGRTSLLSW
Details: at 0.1 µM
Description: GSK_PKIS: MAP4K4 mean inhibition at 0.1 uM [Nanosyn]
READOUT_KIND: inhibition (%)
The figure you give is taken to be in %; do not add the unit.

Field: example entries. Status: answers known.
>  <INPUT_SMILES>
CCS(=O)(=O)c1ccc(OC)c(Nc2ncc(-c3cccc(OC)c3)o2)c1

>  <inhibition (%)>
4.46

$$$$
>  <INPUT_SMILES>
O=S(=O)(CCOCc1ccc(-c2ccc3ncnc(Nc4ccc(OCc5cccc(F)c5)c(Cl)c4)c3c2)o1)c1ccccc1

>  <inhibition (%)>
6.19

$$$$
>  <INPUT_SMILES>
COc1cc2ncn(-c3cc(OCc4ccccc4S(C)(=O)=O)c(C#N)s3)c2cc1OC

>  <inhibition (%)>
57.5

$$$$
>  <INPUT_SMILES>
CCS(=O)(=O)c1ccc(OC)c(Nc2nccc(N(C)c3ccc4c(C)n[nH]c4c3)n2)c1

>  <inhibition (%)>
4.51

$$$$
>  <INPUT_SMILES>
CCOc1nccc2c1nc(-c1nonc1N)n2CC

>  <inhibition (%)>
3.98

$$$$
>  <INPUT_SMILES>
Cc1ccc(Nc2ccnc(Nc3cccc(C(N)=O)c3)n2)cc1O

>  <inhibition (%)>
6.53

$$$$

Could you now consider this next compound?
Entry CN(c1ccc(NC(=O)Nc2ccc(OC(F)(F)F)cc2)cc1)c1ccnc(Nc2cccc(S(N)(=O)=O)c2)n1 ; inhibition = 24.4

----------
Each entry below lists one item and its recorded inhibition value.
Test system: Platelet-derived growth factor receptor alpha (Homo sapiens), P16234 [D842V]
Sequence (P16234 whole entry D842V): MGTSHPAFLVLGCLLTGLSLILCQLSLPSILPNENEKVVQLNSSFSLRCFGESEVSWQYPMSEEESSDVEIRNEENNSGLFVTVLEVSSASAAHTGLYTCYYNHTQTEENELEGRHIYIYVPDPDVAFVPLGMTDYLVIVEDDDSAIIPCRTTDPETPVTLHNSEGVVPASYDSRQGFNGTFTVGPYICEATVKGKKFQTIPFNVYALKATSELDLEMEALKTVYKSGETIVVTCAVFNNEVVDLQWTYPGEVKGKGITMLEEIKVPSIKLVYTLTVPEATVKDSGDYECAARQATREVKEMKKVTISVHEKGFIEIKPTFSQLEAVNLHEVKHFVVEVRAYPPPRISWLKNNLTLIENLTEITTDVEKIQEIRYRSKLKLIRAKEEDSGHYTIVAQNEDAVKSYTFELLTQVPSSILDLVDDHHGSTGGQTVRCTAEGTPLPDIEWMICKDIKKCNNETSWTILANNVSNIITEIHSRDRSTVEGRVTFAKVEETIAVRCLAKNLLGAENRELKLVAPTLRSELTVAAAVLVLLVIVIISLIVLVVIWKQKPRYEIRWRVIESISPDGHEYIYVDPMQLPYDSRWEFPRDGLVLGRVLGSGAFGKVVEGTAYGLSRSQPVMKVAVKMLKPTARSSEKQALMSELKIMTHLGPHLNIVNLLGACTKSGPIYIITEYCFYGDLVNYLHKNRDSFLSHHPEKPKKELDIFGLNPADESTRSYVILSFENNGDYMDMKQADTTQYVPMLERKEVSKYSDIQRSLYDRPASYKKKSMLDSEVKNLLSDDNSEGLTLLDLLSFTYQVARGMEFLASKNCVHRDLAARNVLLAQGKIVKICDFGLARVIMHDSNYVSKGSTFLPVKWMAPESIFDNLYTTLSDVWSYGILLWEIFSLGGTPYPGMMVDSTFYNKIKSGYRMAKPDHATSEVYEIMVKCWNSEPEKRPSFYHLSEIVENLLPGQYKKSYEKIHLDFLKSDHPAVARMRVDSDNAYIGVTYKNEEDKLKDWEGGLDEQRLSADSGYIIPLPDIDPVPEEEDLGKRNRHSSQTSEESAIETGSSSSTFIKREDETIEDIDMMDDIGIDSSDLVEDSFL
Conditions: at 0.1 µM
In your response, put the unit directly after the numeric value.

>  <INPUT_SMILES>
COc1cc2ncnc(Nc3ccc(C)c(O)c3)c2cc1OC

>  <ASSAYED_SYSTEM>
Platelet-derived growth factor receptor alpha (Homo sapiens), P16234 [D842V]

>  <REPORTED_RESULT>
94.2%

$$$$
>  <INPUT_SMILES>
COC(=O)c1ccc2c(c1)C(=Cc1cc(Br)c(O)c(Br)c1)C(=O)N2

>  <ASSAYED_SYSTEM>
Platelet-derived growth factor receptor alpha (Homo sapiens), P16234 [D842V]

>  <REPORTED_RESULT>
2.33%

$$$$
>  <INPUT_SMILES>
Cc1ccc(Nc2ccnc(Nc3cccc(C(N)=O)c3)n2)cc1O

>  <ASSAYED_SYSTEM>
Platelet-derived growth factor receptor alpha (Homo sapiens), P16234 [D842V]

>  <REPORTED_RESULT>
48.4%

$$$$
>  <INPUT_SMILES>
[O-][S+]1CCN(Cc2ccc(-c3ccc4ncnc(Nc5ccc(OCc6ccccc6)c(Cl)c5)c4c3)o2)CC1

>  <ASSAYED_SYSTEM>
Platelet-derived growth factor receptor alpha (Homo sapiens), P16234 [D842V]

>  <REPORTED_RESULT>
0.45%

$$$$
>  <INPUT_SMILES>
NS(=O)(=O)c1ccc(-c2cc3ccncc3cc2OCc2ccccc2)cc1

>  <ASSAYED_SYSTEM>
Platelet-derived growth factor receptor alpha (Homo sapiens), P16234 [D842V]

>  <REPORTED_RESULT>
0.32%

$$$$

Form field inhibition, entry Cc1ccc2c(-c3ccnc(Nc4ccc5c(c4)OCCO5)n3)c(-c3ccc(C(F)(F)F)cc3)nn2n1 : 2.16%

----------
Known inhibition of a selection of compounds
Molecular target: Calcium/calmodulin-dependent protein kinase type II subunit alpha (Homo sapiens) (UniProt Q9UQM7);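 also: reported value is a mean percent inhibition of CAMK2A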
Sequence (Q9UQM7 whole entry): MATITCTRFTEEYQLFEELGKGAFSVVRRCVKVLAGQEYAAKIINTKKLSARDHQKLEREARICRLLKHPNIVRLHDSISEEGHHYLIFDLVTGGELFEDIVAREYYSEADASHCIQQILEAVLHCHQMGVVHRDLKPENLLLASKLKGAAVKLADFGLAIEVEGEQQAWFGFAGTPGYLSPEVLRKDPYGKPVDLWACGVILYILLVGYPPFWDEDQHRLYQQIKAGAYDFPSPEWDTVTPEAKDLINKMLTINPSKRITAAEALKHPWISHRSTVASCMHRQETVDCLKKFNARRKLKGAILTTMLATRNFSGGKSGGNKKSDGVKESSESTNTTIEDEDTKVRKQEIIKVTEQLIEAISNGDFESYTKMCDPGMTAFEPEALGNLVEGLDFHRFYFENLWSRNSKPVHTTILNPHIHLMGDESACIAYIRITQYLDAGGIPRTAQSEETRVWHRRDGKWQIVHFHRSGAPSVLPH
Details: at 1 µM
Please state the figure in %; there is no need to write the unit.

>  <INPUT_SMILES>
C[C@@H](Oc1cc(-n2cnc3ccc(OCC4CCN(C)CC4)cc32)sc1C(N)=O)c1ccccc1C(F)(F)F

>  <inhibition [%]>
14.2

$$$$
>  <INPUT_SMILES>
COc1cc2ncn(-c3cc(OCc4ccccc4S(C)(=O)=O)c(C#N)s3)c2cc1OC

>  <inhibition [%]>
29.9

$$$$

inhibition in this record for COc1cc2ncnc(Nc3ccc(C)c(O)c3)c2cc1OC : 2.74

Lab note: measured inhibition of CS(=O)(=O)Nc1cccc(-c2ccc3c(NC(=O)C4CC4)n[nH]c3c2)c1 was 2.85

----------
Molecular target: Tyrosine-protein kinase JAK3 (Homo sapiens) (UniProt P52333);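 also: values reported are mean percent inhibition of JAK3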
Sequence (whole entry): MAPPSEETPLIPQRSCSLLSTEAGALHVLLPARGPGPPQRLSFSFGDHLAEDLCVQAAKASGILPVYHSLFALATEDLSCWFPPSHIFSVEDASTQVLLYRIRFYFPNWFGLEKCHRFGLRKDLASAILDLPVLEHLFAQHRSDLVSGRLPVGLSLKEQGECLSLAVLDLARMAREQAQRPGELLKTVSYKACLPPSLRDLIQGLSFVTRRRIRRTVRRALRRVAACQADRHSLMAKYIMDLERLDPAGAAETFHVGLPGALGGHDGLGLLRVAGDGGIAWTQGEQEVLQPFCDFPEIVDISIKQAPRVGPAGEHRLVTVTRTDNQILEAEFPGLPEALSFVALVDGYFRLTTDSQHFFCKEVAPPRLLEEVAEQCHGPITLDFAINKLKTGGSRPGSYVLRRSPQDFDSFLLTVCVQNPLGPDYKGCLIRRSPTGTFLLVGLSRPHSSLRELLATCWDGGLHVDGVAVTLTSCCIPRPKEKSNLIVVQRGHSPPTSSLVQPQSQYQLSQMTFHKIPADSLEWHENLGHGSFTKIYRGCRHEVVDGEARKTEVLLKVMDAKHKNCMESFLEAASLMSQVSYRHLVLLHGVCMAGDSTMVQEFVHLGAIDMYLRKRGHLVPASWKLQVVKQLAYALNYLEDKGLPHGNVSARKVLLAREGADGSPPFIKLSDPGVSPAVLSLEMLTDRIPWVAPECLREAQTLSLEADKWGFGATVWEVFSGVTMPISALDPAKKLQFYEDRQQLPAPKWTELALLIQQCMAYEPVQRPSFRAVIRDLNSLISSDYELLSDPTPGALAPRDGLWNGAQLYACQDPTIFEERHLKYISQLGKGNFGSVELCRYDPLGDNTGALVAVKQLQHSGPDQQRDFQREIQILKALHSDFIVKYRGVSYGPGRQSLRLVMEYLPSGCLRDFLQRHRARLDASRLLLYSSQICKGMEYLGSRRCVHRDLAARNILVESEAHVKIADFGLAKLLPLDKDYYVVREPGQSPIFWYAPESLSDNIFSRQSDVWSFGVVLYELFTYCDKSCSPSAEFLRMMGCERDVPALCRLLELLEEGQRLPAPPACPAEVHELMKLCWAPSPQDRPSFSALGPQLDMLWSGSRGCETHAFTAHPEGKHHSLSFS
Conditions: at 0.1 µM
READOUT_KIND: inhibition (%)
Kindly provide the numeric value in % only, without the unit symbol.

Record excerpt, results attached:
>  <INPUT_SMILES>
Cc1cc(-c2ccccn2)cc(C)c1/C=C/c1cncc(-c2nn[nH]n2)c1

>  <inhibition / %>
0.16

$$$$
>  <INPUT_SMILES>
NC(=O)c1sc(-n2cnc3ccccc32)cc1OCc1ccccc1Br

>  <inhibition / %>
-2.53

$$$$
>  <INPUT_SMILES>
Cc1ccc2c(-c3ccnc(Nc4cccc(C(F)(F)F)c4)n3)c(-c3ccccc3)nn2n1

>  <inhibition / %>
-1.71

$$$$

Tyrosine-protein kinase JAK3 (Homo sapiens) (UniProt P52333) inhibition of N#Cc1cccc(Nc2nccc(-c3cnn4ncccc34)n2)c1 is 5.73

Test item CC(C)c1ccc(Nc2nccc(-c3cnn4ncccc34)n2)cc1 ; Tyrosine-protein kinase JAK3 (Homo sapiens) (UniProt P52333); reported inhibition was 0.01
